Origin of measurements: patent US20140081017A1

- Test system: Candida glabrata
- Assay explanation: Minimal Inhibitory Concentration (MIC) assay, broth microdilution per CLSI;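 note: two read times 24 hr and 48 hr of incubation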
- Format: cell-based
- Test settings: Nakaseomyces glabratus; 48 hr reading (second value of cell 24 hr/48 hr); read-out: Minimum Inhibitory Concentrations against Yeast Isolates, Candida glabrata
Assay endpoint: MIC

The measured MIC associated with `O=C(Cc1ccc(CCCCc2ccc(OCCCN3CCOCC3)cc2)cc1)NO` reads > 32 µg/mL

The measured MIC associated with O=C(Cc1ccc(CCC(O)Cc2ccccc2)cc1)NO (centres unmarked) reads > 64 µg/mL

The measured MIC associated with `COC(=O)Nc1ccc(CCCCc2ccc(CC(=O)NO)cc2)cc1` reads > 4 µg/mL

The measured MIC associated with `O=C(Cc1cnc(CCCCc2ccccc2)s1)NO` reads > 64 µg/mL

The measured MIC associated with `CN(C)CCSCC(=O)Nc1cccc(CCCCc2ccc(CC(=O)NO)cc2)c1` reads 64 µg/mL

The measured MIC associated with `O=C(Cc1ccc(CCCCc2ccc(OCCN3CCCC3)cc2)cc1)NO` reads > 64 µg/mL

The measured MIC associated with `CN1CCN(CCS(=O)(=O)Nc2cccc(CCCCc3ccc(CC(=O)NO)cc3)c2)CC1` reads > 64 µg/mL

The measured MIC associated with O=C(Cc1ccc(CCCC(F)c2ccccc2)cc1)NO (centres unmarked) reads 8 µg/mL

The measured MIC associated with O=C(Cc1ccc(CCC(F)Cc2ccccc2)cc1)NO (centres unmarked) reads 2 µg/mL

The measured MIC associated with `O=C(Cc1ccc(CCCCc2ccc(O)cc2)cc1)NO` reads > 8 µg/mL

The measured MIC associated with `CC(=O)Nc1ccccc1CCCCc1ccc(CC(=O)NO)cc1` reads > 64 µg/mL
